Molecular target: T1, p47phox^SH3A-B (human His-tagged p47phox^151-286) (human, UniProt P14598 151-286)
T1 chain: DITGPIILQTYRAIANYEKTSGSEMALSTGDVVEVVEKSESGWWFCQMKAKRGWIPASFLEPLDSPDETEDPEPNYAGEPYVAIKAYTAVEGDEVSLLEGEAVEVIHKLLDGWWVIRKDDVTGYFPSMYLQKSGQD
Assay: FP; 1×HBST
Where no end group is shown, it is not given here. TAMRA = carboxytetramethylrhodamine label; Cy5 = cyanine 5 label
Measured pKd of individual entries
The read-out pKd is expressed as -log10 of concentration in moles per litre.

[[record]]
binder = "{TAMRA}-PPTNPPPRPPAE [carboxytetramethylrhodamine (TAMRA)-p22phox^151-162]"
parameter = "pKd"
result_value = 5.15


Now for the binder whose pKd we want.
Inquiry: Give recorded pKd. Cy5-KQPPTNPPPRPPAE [cyanine 5 (Cy5)-p22phox^149-162]
Reply text: 5.72
